Experiment: in vitro
Conditions: human, liver microsomes
CLint scaled at 0.5 h, 1 µM of 300 L/h/kg or higher: 1. Under 300 L/h/kg: -1.

The following compounds have reported results that may help.
| COMPOUND | ANSWER LABEL |
| --- | --- |
| C=C[C@]1(C)C[C@@H](OC(=O)Cn2cc(-c3ccc(Cn4cnc5c(N6CCN(C)CC6)ncnc54)cc3)nn2)[C@]2(C)[C@H](C)CC[C@]3(CCC(=O)[C@H]32)[C@@H](C)[C@@H]1O | -1 |
| C=C[C@]1(C)C[C@@H](OC(=O)Cn2cc(-c3ccc(Cn4cnc5c(N)ncnc54)nc3)nn2)[C@]2(C)[C@H](C)CC[C@]3(CCC(=O)[C@H]32)[C@@H](C)[C@@H]1O | -1 |
| C=C[C@]1(C)C[C@@H](OC(=O)Cn2cc(-c3ccc(Cn4cnc5c(N)ncnc54)c(O)c3)nn2)[C@]2(C)[C@H](C)CC[C@]3(CCC(=O)[C@H]32)[C@@H](C)[C@@H]1O | 1 |
| C=C[C@]1(C)C[C@@H](OC(=O)CS[C@@H]2CC[C@@H](N)C[C@H]2O)[C@]2(C)[C@H](C)CC[C@]3(CCC(=O)[C@H]32)[C@@H](C)[C@@H]1O [LEFAMULIN] | -1 |

Now consider a different compound.
Data request: Threshold query (CLint scaled at 0.5 h, 1 µM >= 300 L/h/kg) on C=C[C@]1(C)C[C@@H](OC(=O)Cn2cc(-c3ccc(Cn4cnc5c(N6CCNCC6)ncnc54)nc3)nn2)[C@]2(C)[C@H](C)CC[C@]3(CCC(=O)[C@H]32)[C@@H](C)[C@@H]1O
Data returned: -1

###

Tested on: MDCK-MDR1
Assay: Cytotoxicity against MDCKII-MDR1 cells assessed as cell viability at 100 uM measured by MTT assay
Assay type: toxicity, cell-based, Canis lupus familiaris
Settings: dog, mdck-mdr1, 100 µM

| COMPOUND SMILES | TARGET ENTITY | Activity |
| --- | --- | --- |
| C=C[C@]1(C)C[C@@H](OC(=O)Cn2cc(-c3ccc(Cn4cnc5c(N6CCN(C)CC6)ncnc54)cc3)nn2)[C@]2(C)[C@H](C)CC[C@]3(CCC(=O)[C@H]32)[C@@H](C)[C@@H]1O | MDCK-MDR1 | Non-Toxic |
| C=C[C@]1(C)C[C@@H](OC(=O)Cn2cc(-c3ccc(Cn4cnc5c(N6CCNCC6)ncnc54)nc3)nn2)[C@]2(C)[C@H](C)CC[C@]3(CCC(=O)[C@H]32)[C@@H](C)[C@@H]1O | MDCK-MDR1 | Non-Toxic |
| C=C[C@]1(C)C[C@@H](OC(=O)Cn2cc(-c3ccc(Cn4cnc5c(N)ncnc54)nc3)nn2)[C@]2(C)[C@H](C)CC[C@]3(CCC(=O)[C@H]32)[C@@H](C)[C@@H]1O | MDCK-MDR1 | Non-Toxic |

###

Assay: Half life in pig urine at 3 mg/kg, iv measured upto 240 mins by LC-MS/MS analysis
Format: ADME, organism-based, Sus scrofa
READOUT TYPE: half-life (min)
Give bare numbers, in min.

Data request: # lookup: half-life of C=C[C@]1(C)C[C@@H](OC(=O)Cn2cc(-c3ccc(Cn4cnc5c(N6CCNCC6)ncnc54)nc3)nn2)[C@]2(C)[C@H](C)CC[C@]3(CCC(=O)[C@H]32)[C@@H](C)[C@@H]1O
Data returned: 27.6
